Test system: Giardia intestinalis trophozoites
method.notes: Drug susceptibility of Giardia trophozoites, ATP level by luminescence (BacTiter-Glo), 48 h incubation, anaerobic or microaerobic
Assay type: cell-based, Giardia intestinalis strain WB clone C6
measurement.setup: SI = IC50,Caco-2/IC50,Giardia; Giardia under microaerobiosis
reported.endpoint: Selectivity (IC50,Caco/IC50,Giardia) Microaerobiosis

- O=C(/C=C/c1cc2ccccc2n(Cc2cn(-c3ccc(Cl)cc3)nn2)c1=O)c1ccc(Br)cc1: ≥10
- Cc1ccc(C(=O)/C=C/c2cc3ccccc3n(Cc3cn(-c4ccc(F)cc4)nn3)c2=O)cc1: 15,8
- COc1ccccc1C(=O)/C=C/c1cc2ccccc2n(Cc2cn(-c3ccc(C)cc3)nn2)c1=O: 34,3

* * *

This section presents molecules with their documented melting point values.
reported.endpoint: melting point

• COc1cccc(C(=O)/C=C/c2cc3ccccc3n(Cc3cn(-c4ccc(C)cc4)nn3)c2=O)c1 = 192 to 194 °C
• Cc1ccc(-n2cc(Cn3c(=O)c(/C=C/C(=O)c4ccc(F)cc4)cc4ccccc43)nn2)cc1 = 215 to 217 °C
• COc1cccc(C(=O)/C=C/c2cc3ccccc3n(Cc3cn(-c4ccc(Cl)cc4)nn3)c2=O)c1 = 215 to 217 °C
• Cc1ccc(-n2cc(Cn3c(=O)c(/C=C/C(=O)c4ccccc4F)cc4ccccc43)nn2)cc1 = 197 to 199 °C
• Cc1ccc(C(=O)/C=C/c2cc3ccccc3n(Cc3cn(-c4ccccc4)nn3)c2=O)cc1 = 216 to 218 °C
• Cc1ccc(-n2cc(Cn3c(=O)c(/C=C/C(=O)c4ccc(Cl)cc4)cc4ccccc43)nn2)cc1 = 196 to 198 °C
• COc1cccc(C(=O)/C=C/c2cc3ccccc3n(Cc3cn(-c4ccc(F)cc4)nn3)c2=O)c1 = 220 to 222 °C
• COc1ccccc1C(=O)/C=C/c1cc2ccccc2n(Cc2cn(-c3ccc(F)cc3)nn2)c1=O = 132 to 134 °C
• COc1ccc(C(=O)/C=C/c2cc3ccccc3n(Cc3cn(-c4ccc(Cl)cc4)nn3)c2=O)cc1 = 210 to 212 °C
• O=C(/C=C/c1cc2ccccc2n(Cc2cn(-c3ccccc3)nn2)c1=O)c1cccc(F)c1 = 180 to 182 °C
• Cc1ccc(C(=O)/C=C/c2cc3ccccc3n(Cc3cn(-c4ccc(Cl)cc4)nn3)c2=O)cc1 = 217 to 219 °C
• COc1ccccc1C(=O)/C=C/c1cc2ccccc2n(Cc2cn(-c3ccc(Cl)cc3)nn2)c1=O = 230 to 232 °C
• COc1ccccc1C(=O)/C=C/c1cc2ccccc2n(Cc2cn(-c3ccccc3)nn2)c1=O = 210 to 212 °C
• COc1ccc(-n2cc(Cn3c(=O)c(/C=C/C(=O)c4ccccc4F)cc4ccccc43)nn2)cc1 = 215 to 217 °C
• COc1ccc(-n2cc(Cn3c(=O)c(/C=C/C(=O)c4ccc(F)cc4)cc4ccccc43)nn2)cc1 = 211 to 213 °C
• O=C(/C=C/c1cc2ccccc2n(Cc2cn(-c3ccc(Cl)cc3)nn2)c1=O)c1ccc(Cl)cc1 = 180 to 182 °C
• O=C(/C=C/c1cc2ccccc2n(Cc2cn(-c3ccc(F)cc3)nn2)c1=O)c1cccc(F)c1 = 203 to 205 °C
• O=C(/C=C/c1cc2ccccc2n(Cc2cn(-c3ccc(Cl)cc3)nn2)c1=O)c1ccc(F)cc1 = 216 to 218 °C
• COc1ccc(-n2cc(Cn3c(=O)c(/C=C/C(=O)c4ccc(C)cc4)cc4ccccc43)nn2)cc1 = 213 to 215 °C
• O=C(/C=C/c1cc2ccccc2n(Cc2cn(-c3ccccc3)nn2)c1=O)c1ccc(F)cc1 = 202 to 204 °C
• O=C(/C=C/c1cc2ccccc2n(Cc2cn(-c3ccc(Cl)cc3)nn2)c1=O)c1cccc(F)c1 = 190 to 192 °C
• O=C(/C=C/c1cc2ccccc2n(Cc2cn(-c3ccc(F)cc3)nn2)c1=O)c1ccc(Br)cc1 = 238 to 240 °C
• COc1ccc(-n2cc(Cn3c(=O)c(/C=C/C(=O)c4ccc(Cl)cc4)cc4ccccc43)nn2)cc1 = 230 to 232 °C
• Cc1ccc(C(=O)/C=C/c2cc3ccccc3n(Cc3cn(-c4ccc(C)cc4)nn3)c2=O)cc1 = 202 to 204 °C
• COc1ccc(C(=O)/C=C/c2cc3ccccc3n(Cc3cn(-c4ccccc4)nn3)c2=O)cc1 = 215 to 217 °C
• O=C(/C=C/c1cc2ccccc2n(Cc2cn(-c3ccccc3)nn2)c1=O)c1ccc(Cl)cc1 = 216 to 218 °C
• COc1ccc(-n2cc(Cn3c(=O)c(/C=C/C(=O)c4ccccc4OC)cc4ccccc43)nn2)cc1 = 210 to 212 °C
• O=C(/C=C/c1cc2ccccc2n(Cc2cn(-c3ccc(F)cc3)nn2)c1=O)c1ccc(F)cc1 = 202 to 204 °C
• COc1ccc(C(=O)/C=C/c2cc3ccccc3n(Cc3cn(-c4ccc(OC)cc4)nn3)c2=O)cc1 = 190 to 192 °C
• O=C(/C=C/c1cc2ccccc2n(Cc2cn(-c3ccc(F)cc3)nn2)c1=O)c1ccc(Cl)cc1 = 190 to 192 °C

* * *

System: Giardia intestinalis trophozoites
method.notes: Drug susceptibility of Giardia trophozoites, ATP level by luminescence (BacTiter-Glo), 48 h incubation, anaerobic or microaerobic
Assay type: cell-based, Giardia intestinalis strain WB clone C6
measurement.setup: human (Caco-2 cells) versus Giardia intestinalis, Caco-2, SI = IC50,Caco-2/IC50,Giardia; Giardia under anaerobiosis; read-out: Selectivity (IC50,Caco/IC50,Giardia) Anaerobiosis
Here, each record is paired with measured selectivity ratio at 48 h data.
reported.endpoint: selectivity ratio at 48 h

* COc1cccc(C(=O)/C=C/c2cc3ccccc3n(Cc3cn(-c4ccc(Cl)cc4)nn3)c2=O)c1 | 2.2
* O=C(/C=C/c1cc2ccccc2n(Cc2cn(-c3ccc(F)cc3)nn2)c1=O)c1ccc(F)cc1 | 5.8
* Cc1ccc(-n2cc(Cn3c(=O)c(/C=C/C(=O)c4ccc(F)cc4)cc4ccccc43)nn2)cc1 | 2.5
* Cc1ccc(C(=O)/C=C/c2cc3ccccc3n(Cc3cn(-c4ccc(Cl)cc4)nn3)c2=O)cc1 | 2.3
* O=C(/C=C/c1cc2ccccc2n(Cc2cn(-c3ccc(F)cc3)nn2)c1=O)c1cccc(F)c1 | 2.9
* O=C(/C=C/c1cc2ccccc2n(Cc2cn(-c3ccccc3)nn2)c1=O)c1ccccc1F | 5.9
* O=C(/C=C/c1cc2ccccc2n(Cc2cn(-c3ccccc3)nn2)c1=O)c1ccc(F)cc1 | 3.4
* Cc1ccc(-n2cc(Cn3c(=O)c(/C=C/C(=O)c4ccccc4F)cc4ccccc43)nn2)cc1 | 5.5
* O=C(/C=C/c1cc2ccccc2n(Cc2cn(-c3ccccc3)nn2)c1=O)c1ccc(Cl)cc1 | 2.8
* O=C(/C=C/c1cc2ccccc2n(Cc2cn(-c3ccc(Cl)cc3)nn2)c1=O)c1ccc(F)cc1 | 2.7
* COc1ccccc1C(=O)/C=C/c1cc2ccccc2n(Cc2cn(-c3ccc(Cl)cc3)nn2)c1=O | 2.6
* Cc1ccc(C(=O)/C=C/c2cc3ccccc3n(Cc3cn(-c4ccccc4)nn3)c2=O)cc1 | 6.4
* Cc1ccc(-n2cc(Cn3c(=O)c(/C=C/C(=O)c4ccc(Cl)cc4)cc4ccccc43)nn2)cc1 | 2.9
* O=C(/C=C/c1cc2ccccc2n(Cc2cn(-c3ccc(F)cc3)nn2)c1=O)c1ccc(Br)cc1 | 15.2
* O=C(/C=C/c1cc2ccccc2n(Cc2cn(-c3ccc(F)cc3)nn2)c1=O)c1ccc(Cl)cc1 | 4.8

* * *

Test system: Giardia intestinalis trophozoites
method.notes: Drug susceptibility of Giardia trophozoites, ATP level by luminescence (BacTiter-Glo), 48 h incubation, anaerobic or microaerobic
Format: cell-based, Giardia intestinalis strain WB clone C6
measurement.setup: SI = IC50,Caco-2/IC50,Giardia; Giardia under anaerobiosis
Entries and their Selectivity (IC50,Caco/IC50,Giardia) Anaerobiosis values follow.
reported.endpoint: Selectivity (IC50,Caco/IC50,Giardia) Anaerobiosis

* Cc1ccc(C(=O)/C=C/c2cc3ccccc3n(Cc3cn(-c4ccc(F)cc4)nn3)c2=O)cc1 [Compound 46] | 2,5
* O=C(/C=C/c1cc2ccccc2n(Cc2cn(-c3ccccc3)nn2)c1=O)c1ccc(Br)cc1 [Compound 63] | ≥ 7
* O=C(/C=C/c1cc2ccccc2n(Cc2cn(-c3ccc(Cl)cc3)nn2)c1=O)c1ccc(Br)cc1 [Compound 54] | ≥ 2
* O=C(/C=C/c1cc2ccccc2n(Cc2cn(-c3ccc(F)cc3)nn2)c1=O)c1ccccc1F [Compound 41] | 5,8
* COc1ccc(-n2cc(Cn3c(=O)c(/C=C/C(=O)c4cccc(OC)c4)cc4ccccc43)nn2)cc1 [Compound 30] | ≥33
* COc1ccc(-n2cc(Cn3c(=O)c(/C=C/C(=O)c4ccc(Br)cc4)cc4ccccc43)nn2)cc1 [Compound 27] | ≥2
* Cc1ccc(-n2cc(Cn3c(=O)c(/C=C/C(=O)c4cccc(F)c4)cc4ccccc43)nn2)cc1 [Compound 33] | 3,4
* COc1ccccc1C(=O)/C=C/c1cc2ccccc2n(Cc2cn(-c3ccc(C)cc3)nn2)c1=O [Compound 38] | 6,9
* COc1ccc(C(=O)/C=C/c2cc3ccccc3n(Cc3cn(-c4ccc(F)cc4)nn3)c2=O)cc1 [Compound 49] | ≥3
